Readings of pKd for the listed substances
target: native c-MYC quadruplex (Pu27)
assayProtocol: ITC of peptides with native c-MYC quadruplex Pu27 in potassium phosphate buffer
Type: binding, human
measurementConditions: 25°C, 20 μM peptide in cell, 500 μM Pu27 in syringe, 10 mM potassium phosphate, 0.1 M KCl, pH 7.0, one-site model
In plain terms, pKd is the concentration in mol/L turned into minus its base-10 logarithm.

Solved entries (count: 5):
N – FKRIVQRIKDFLR – C [FK13]: 4.46
N – KRIVKRIKKWLL – C [KR12E, dodecameric mutant peptide derived from FK13 / LL37]: 4.27
N – KRIVQRIKKWLR – C [KR12A, dodecameric mutant peptide derived from FK13 / LL37]: 4.21
N – KRIVKLIKKWLR – C [KR12C]: 5.09
N – KRIVKVIKKWLR – C [KR12D, dodecameric mutant peptide derived from FK13 / LL37]: 4.31

Next, consider the following substance.
Any idea what its pKd is? The substance is N – KRIVKRIKKWLR – C [KR12B, dodecameric mutant peptide derived from FK13 / LL37]
4.43
